Assay: Cytotoxicity against MDCK cells after 48 hrs by MTT assay
Assay type: cell-based, Canis lupus familiaris
Conditions: dog
CC50 at 48 h values by entry

Consider the reported CC50 at 48 h for these compounds:
**Query** Field request: CC50 at 48 h | item: O=c1c(O)c(-c2ccc(O)c(O)c2)oc2cc(O)cc(O)c12
**Result** 254 µM

**Query** Field request: CC50 at 48 h | item: O=c1c(O[C@@H]2O[C@H](CO)[C@@H](O)[C@H](O)[C@H]2O)c(-c2ccc(O)cc2)oc2cc(O)cc(O)c12
**Result** > 300 µM

**Query** Field request: CC50 at 48 h | item: C[C@@H]1O[C@@H](OC[C@H]2O[C@@H](Oc3c(-c4ccc(O)cc4)oc4cc(O)cc(O)c4c3=O)[C@H](O)[C@@H](O)[C@@H]2O)[C@H](O)[C@H](O)[C@H]1O [NICOTIFLOROSIDE]
**Result** > 300 µM

---
**Query** Field request: CC50 at 48 h | item: CCOC(=O)C1=C[C@@H](OC(CC)CC)[C@H](NC(C)=O)[C@@H](N)C1
**Result** > 300 µM

====

selectivity ratio values by entry
Test: Selectivity index, ratio of CC50 for MDCK cells to EC50 for influenza virus H1N1 A/PR/8/34
Type: toxicity, cell-based
Conditions: dog, read-out: Ratio CC50/EC50
Could you respond with only the numeric value?

**Query** Field request: selectivity ratio | item: O=c1cc(-c2ccc(O)c(O)c2)oc2cc(O)cc(O)c12
**Result** 1.96

Field: next molecule
**Query** Field request: selectivity ratio | item: O=c1c(O)c(-c2ccc(O)c(O)c2)oc2c(O)c(O)cc(O)c12
**Result** 6.58

====

Molecular target: Neuraminidase (Influenza A virus)
Test: Noncompetitive inhibition of recombinant influenza A virus rvH1N1 A/Bervig_Mission/1/18 neuraminidase
IC50 values by entry
Please state the figure in µM; there is no need to write the unit.

**Query** Field request: IC50 | item: O=c1c(O)c(-c2ccc(O)c(O)c2)oc2cc(O)cc(O)c12
**Result** 2.2

**Query** Field request: IC50 | item: C[C@@H]1O[C@@H](OC[C@H]2O[C@@H](Oc3c(-c4ccc(O)c(O)c4)oc4cc(O)cc(O)c4c3=O)[C@H](O)[C@@H](O)[C@@H]2O)[C@H](O)[C@H](O)[C@H]1O
**Result** 34.4

**Query** Field request: IC50 | item: O=c1cc(-c2ccc(O)cc2)oc2cc(O[C@@H]3O[C@H](CO)[C@@H](O)[C@H](O)[C@H]3O)cc(O)c12
**Result** 46.9

---
**Query** Field request: IC50 | item: C[C@@H]1OC(Oc2cc(O)c3c(=O)c(O)c(-c4ccc(O)cc4)oc3c2O)[C@H](O)[C@H](O)[C@H]1O (some centres undefined)
**Result** 32.2

====

Biological target: Sialidase (Clostridium perfringens)
Sequence (P10481 whole entry): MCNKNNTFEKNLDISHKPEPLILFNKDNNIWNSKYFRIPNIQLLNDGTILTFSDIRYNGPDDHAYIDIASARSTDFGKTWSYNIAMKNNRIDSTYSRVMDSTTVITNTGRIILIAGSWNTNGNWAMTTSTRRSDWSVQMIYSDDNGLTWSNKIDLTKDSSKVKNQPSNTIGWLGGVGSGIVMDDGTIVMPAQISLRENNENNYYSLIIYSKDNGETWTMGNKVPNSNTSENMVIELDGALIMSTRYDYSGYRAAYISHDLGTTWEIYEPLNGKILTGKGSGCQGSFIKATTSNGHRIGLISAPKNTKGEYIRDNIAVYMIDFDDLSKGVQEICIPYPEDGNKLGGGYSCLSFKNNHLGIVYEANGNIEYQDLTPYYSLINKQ
pIC50: −log10 of the molar value.
Use 5 as the dividing line for pIC50, with the line itself on the class 1 side and lower values as class 0.

Consider the worked cases shown below.
**Query** Check this compound for pIC50 at or above 5: O=c1cc(-c2ccc(O)c(O)c2)oc2cc(O)cc(O)c12
**Result** class 1

**Query** Check this compound for pIC50 at or above 5: C[C@@H]1O[C@@H](Oc2cc(O)c3c(=O)c(O)c(-c4ccc(O)cc4)oc3c2O)[C@H](O)[C@H](O[C@@H]2O[C@H](CO)[C@@H](O)[C@H](O)[C@H]2O)[C@H]1O
**Result** class 0

**Query** Check this compound for pIC50 at or above 5: O=c1c(O[C@@H]2O[C@H](CO)[C@@H](O)[C@H](O)[C@H]2O)c(-c2ccc(O)cc2)oc2c(O[C@@H]3O[C@H](CO)[C@@H](O)[C@H](O)[C@H]3O)c(O)cc(O)c12
**Result** class 0

---
**Query** Check this compound for pIC50 at or above 5: O=c1c(O)c(-c2ccc(O)c(O)c2)oc2cc(O)cc(O)c12
**Result** class 1

**Query** Check this compound for pIC50 at or above 5: O=c1c(O)c(-c2ccc(O)c(O)c2)oc2c(O)c(O)cc(O)c12
**Result** class 1

**Query** Check this compound for pIC50 at or above 5: C[C@@H]1O[C@@H](OC[C@H]2O[C@@H](Oc3c(-c4ccc(O)c(O)c4)oc4cc(O)cc(O)c4c3=O)[C@H](O)[C@@H](O)[C@@H]2O)[C@H](O)[C@H](O)[C@H]1O
**Result** class 0

**Query** Check this compound for pIC50 at or above 5: C[C@@H]1OC(Oc2cc(O)c3c(=O)c(O)c(-c4ccc(O)cc4)oc3c2O)[C@H](O)[C@H](O)[C@H]1O (stereo partly drawn)
**Result** class 0

**Query** Check this compound for pIC50 at or above 5: O=c1c(O[C@@H]2O[C@H](CO)[C@@H](O)[C@H](O)[C@H]2O)c(-c2ccc(O)cc2)oc2cc(O)cc(O)c12
**Result** class 0
